src = paper PMC2009770

Method: chemical stability to heat, light and air (monitored by TLC and m.p.)
Format: physicochemical
Cond: monitored by TLC and m.p.
Observed property: stability to heat and light

CC(=O)Nc1ccc(-c2ccccc2)s1 [XVI, N-(5-phenylthiophen-2-yl)-acetamide] | stable
CC(=O)Nc1ccc(-c2ccc(NC(C)=O)s2)cc1 | stable
